- targetDesc: recombinant CK2 (Homo sapiens)
- Construct: purchased Upstate Biotechnology 17-132 (number of the activity kit, not of the enzyme)
- Sequence (P68400 whole entry): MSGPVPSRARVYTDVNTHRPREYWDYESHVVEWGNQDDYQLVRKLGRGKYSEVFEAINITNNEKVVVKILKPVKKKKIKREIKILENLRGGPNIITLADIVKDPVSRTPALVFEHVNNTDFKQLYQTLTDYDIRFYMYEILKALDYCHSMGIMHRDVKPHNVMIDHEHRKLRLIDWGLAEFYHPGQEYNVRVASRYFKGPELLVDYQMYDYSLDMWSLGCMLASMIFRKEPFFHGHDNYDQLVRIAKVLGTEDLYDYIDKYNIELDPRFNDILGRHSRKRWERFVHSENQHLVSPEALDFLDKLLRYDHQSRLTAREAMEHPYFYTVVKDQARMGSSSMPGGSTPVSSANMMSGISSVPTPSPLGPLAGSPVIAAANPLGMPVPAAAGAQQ
- Sequence (P67870 2-215 partner limits assumed): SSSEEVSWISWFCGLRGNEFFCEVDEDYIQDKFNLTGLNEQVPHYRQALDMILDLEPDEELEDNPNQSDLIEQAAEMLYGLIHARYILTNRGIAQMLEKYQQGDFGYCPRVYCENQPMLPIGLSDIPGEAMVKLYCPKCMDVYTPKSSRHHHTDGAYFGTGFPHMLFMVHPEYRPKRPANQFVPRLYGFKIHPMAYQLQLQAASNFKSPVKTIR
- testDescription: Casein kinase 2 activity kit, 32P incorporation into substrate peptide
- Format: biochemical
- testContext: recombinant CK2 in vitro; read-out: approximate IC50 for CK2
measuredQuantity: IC50

[[record]]
molecule = "O=c1cc(N2CCOCC2)oc2c(-c3ccccc3)cccc12 [LY294002, reference compound]"
measuredquantity = "IC50"
observed = "~10 µM"

